- System: 233499-124-R-J3-PDC spheroids with HUVEC/MSC, viability;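 also: spheroids exposed to agents for seven days before readout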
- Measurement Description: Anticancer human tumor 233499-124-R-J3-PDC patient-derived colon adenocarcinoma cell line growth inhibition [PI3K]
- Details: curve of first compound; second compound 0.0316 µM
pIC50: −log10 of the molar value.
Quantity Name: pIC50

• CCCS(=O)(=O)Nc1ccc(F)c(C(=O)c2c[nH]c3ncc(-c4ccc(Cl)cc4)cc23)c1F + Cc1nc(NC(=O)N2CCCC2C(N)=O)sc1-c1ccnc(C(C)(C)C(F)(F)F)c1 = 5.28

Write down the reported pIC50 of CC(C)n1nc(-c2ccc3oc(N)nc3c2)c2c(N)ncnc21 + CC(Nc1ccc2c(c1)OCCn1cc(N3C(=O)OCC3C(F)F)nc1-2)C(N)=O , test system: 233499-124-R-J3-PDC spheroids with HUVEC/MSC, viability.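 Also: spheroids exposed to agents for seven days before readout.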
< 7.00

And what about the compound Cn1ncnc1[C@H]1c2n[nH]c(=O)c3cc(F)cc(c23)N[C@@H]1c1ccc(F)cc1 + CC(Nc1ccc2c(c1)OCCn1cc(N3C(=O)OCC3C(F)F)nc1-2)C(N)=O ?
< 7.00

And what about the compound C#Cc1c(F)ccc2cc(O)cc(-c3ncc4c(N5CC6CCC(C5)N6)nc(OCC56CCCN5CC(F)C6)nc4c3F)c12 (stereo unspecified) + COc1c(OCCCN2CCOCC2)ccc2c3n(c(=NC(=O)c4cnc(N)nc4)nc12)CCN3 ?
< 5.00

And what about the compound C=CC(=O)N1CCN(c2nc(=O)n(-c3c(C)ccnc3C(C)C)c3nc(-c4c(O)cccc4F)c(F)cc23)C(C)C1 (stereo unspecified) + Cc1nc(NC(=O)N2CCCC2C(N)=O)sc1-c1ccnc(C(C)(C)C(F)(F)F)c1 ?
< 5.00

And what about the compound Cn1nccc1Nc1nccc(-c2ccn(C(CO)c3ccc(Cl)c(F)c3)c(=O)c2)n1 (stereo unspecified) + COc1c(OCCCN2CCOCC2)ccc2c3n(c(=NC(=O)c4cnc(N)nc4)nc12)CCN3 ?
< 5.00

And what about the compound CNC(=O)c1ccc(N2C(=S)N(c3ccc(C#N)c(C(F)(F)F)c3)C(=O)C2(C)C)cc1F + Cc1nc(NC(=O)N2CCCC2C(N)=O)sc1-c1ccnc(C(C)(C)C(F)(F)F)c1 ?
5.01

And what about the compound Cn1ncnc1[C@H]1c2n[nH]c(=O)c3cc(F)cc(c23)N[C@@H]1c1ccc(F)cc1 + Cc1nc(NC(=O)N2CCCC2C(N)=O)sc1-c1ccnc(C(C)(C)C(F)(F)F)c1 ?
< 7.00

And what about the compound C#Cc1c(F)ccc2cc(O)cc(-c3ncc4c(N5CC6CCC(C5)N6)nc(OCC56CCCN5CC(F)C6)nc4c3F)c12 (stereo unspecified) + CC(Nc1ncnc2nc[nH]c12)c1cc2cccc(Cl)c2c(=O)n1-c1ccccc1 ?
< 5.00

And what about the compound CCN1CCN(Cc2ccc(Nc3ncc(F)c(-c4cc(F)c5nc(C)n(C(C)C)c5c4)n3)nc2)CC1 + COc1c(OCCCN2CCOCC2)ccc2c3n(c(=NC(=O)c4cnc(N)nc4)nc12)CCN3 ?
6.48

And what about the compound CNC(=O)c1ccc(N2C(=S)N(c3ccc(C#N)c(C(F)(F)F)c3)C(=O)C2(C)C)cc1F + COc1c(OCCCN2CCOCC2)ccc2c3n(c(=NC(=O)c4cnc(N)nc4)nc12)CCN3 ?
< 5.00
